system_tested: Fibroblast growth factor receptor 2 (Homo sapiens, UniProt P21802)
Sequence (P21802 whole entry): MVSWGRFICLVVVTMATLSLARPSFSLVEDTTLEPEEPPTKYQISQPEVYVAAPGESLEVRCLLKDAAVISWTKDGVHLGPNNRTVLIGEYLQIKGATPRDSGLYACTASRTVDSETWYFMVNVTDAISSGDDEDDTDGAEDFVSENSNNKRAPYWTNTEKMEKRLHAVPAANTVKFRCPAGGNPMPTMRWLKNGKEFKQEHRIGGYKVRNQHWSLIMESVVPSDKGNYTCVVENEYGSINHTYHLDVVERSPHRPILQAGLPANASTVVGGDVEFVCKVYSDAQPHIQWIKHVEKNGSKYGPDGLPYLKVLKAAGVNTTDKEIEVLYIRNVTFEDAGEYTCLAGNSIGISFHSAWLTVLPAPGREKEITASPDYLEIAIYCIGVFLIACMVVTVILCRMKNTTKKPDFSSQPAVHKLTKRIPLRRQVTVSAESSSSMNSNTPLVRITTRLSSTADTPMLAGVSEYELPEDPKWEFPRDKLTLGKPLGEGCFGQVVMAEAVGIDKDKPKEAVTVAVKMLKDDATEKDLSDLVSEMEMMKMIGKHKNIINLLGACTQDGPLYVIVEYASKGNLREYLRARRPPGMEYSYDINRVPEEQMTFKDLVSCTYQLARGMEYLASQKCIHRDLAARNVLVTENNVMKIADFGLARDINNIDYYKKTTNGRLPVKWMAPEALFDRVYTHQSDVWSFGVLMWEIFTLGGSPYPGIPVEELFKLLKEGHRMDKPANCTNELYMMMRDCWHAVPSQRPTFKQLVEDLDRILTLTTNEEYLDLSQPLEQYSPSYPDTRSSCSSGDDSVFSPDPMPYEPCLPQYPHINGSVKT
measured_metric: pIC50
Scale: negative log10 of molar concentration, which is what pIC50 denotes.

Return value of pIC50 for input COc1cc2c(Oc3ccc(-c4cnc(Nc5ccc(F)cc5)n(C)c4=O)cc3F)ccnc2cc1OCCCN1CCOCC1 , no commentary.
6.85

* * *

system_tested: Vascular endothelial growth factor receptor 1 (Homo sapiens, UniProt P17948)
Sequence (P17948 whole entry): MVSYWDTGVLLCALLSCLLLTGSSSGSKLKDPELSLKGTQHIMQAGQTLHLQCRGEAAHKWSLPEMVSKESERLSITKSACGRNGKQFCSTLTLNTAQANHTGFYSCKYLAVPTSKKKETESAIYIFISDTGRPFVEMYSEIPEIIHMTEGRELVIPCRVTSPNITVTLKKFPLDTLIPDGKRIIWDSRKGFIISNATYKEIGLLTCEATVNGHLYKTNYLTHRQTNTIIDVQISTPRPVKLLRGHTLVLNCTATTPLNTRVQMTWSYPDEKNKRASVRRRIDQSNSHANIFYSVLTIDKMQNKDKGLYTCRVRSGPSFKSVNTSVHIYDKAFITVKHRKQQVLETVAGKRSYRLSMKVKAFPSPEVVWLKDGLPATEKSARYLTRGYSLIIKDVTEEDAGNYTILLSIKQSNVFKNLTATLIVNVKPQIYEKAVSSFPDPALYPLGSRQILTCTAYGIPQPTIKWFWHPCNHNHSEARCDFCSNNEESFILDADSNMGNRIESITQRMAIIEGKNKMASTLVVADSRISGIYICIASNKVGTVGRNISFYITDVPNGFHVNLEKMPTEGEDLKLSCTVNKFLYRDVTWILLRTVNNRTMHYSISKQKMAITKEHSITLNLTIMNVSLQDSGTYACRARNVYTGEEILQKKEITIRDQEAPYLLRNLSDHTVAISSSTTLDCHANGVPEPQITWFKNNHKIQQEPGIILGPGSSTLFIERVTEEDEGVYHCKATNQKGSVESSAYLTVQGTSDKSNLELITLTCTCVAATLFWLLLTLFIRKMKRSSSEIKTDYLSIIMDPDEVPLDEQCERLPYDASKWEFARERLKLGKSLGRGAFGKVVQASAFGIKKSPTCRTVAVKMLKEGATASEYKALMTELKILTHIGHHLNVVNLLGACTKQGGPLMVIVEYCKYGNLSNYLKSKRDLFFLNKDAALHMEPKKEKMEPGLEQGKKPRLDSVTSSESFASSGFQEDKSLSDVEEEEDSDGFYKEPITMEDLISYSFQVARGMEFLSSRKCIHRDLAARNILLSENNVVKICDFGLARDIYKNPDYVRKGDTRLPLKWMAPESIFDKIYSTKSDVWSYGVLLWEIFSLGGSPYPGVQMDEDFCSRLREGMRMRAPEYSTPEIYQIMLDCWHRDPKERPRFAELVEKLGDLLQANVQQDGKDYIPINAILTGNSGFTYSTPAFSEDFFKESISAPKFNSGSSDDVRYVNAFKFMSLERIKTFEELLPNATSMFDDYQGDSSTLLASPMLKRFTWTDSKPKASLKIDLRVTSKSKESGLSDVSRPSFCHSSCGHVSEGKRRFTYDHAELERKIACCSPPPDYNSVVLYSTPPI
pIC50: −log10 of the molar value.
measured_metric: pIC50

Using Vascular endothelial growth factor receptor 1 (Homo sapiens, UniProt P17948) as the test system, report measured pIC50 of COc1cc2c(Oc3ccc(-c4cnc(Cc5ccccc5)n(C)c4=O)cc3F)ccnc2cc1OCCCN1CCOCC1 .
< 6.00
